# reportedConditions: 318.2 K; 101.33 kPa; Liquid; Cone and plate viscometry
± gives the expanded uncertainty stated by the source.

[
  {
    "compound": "CC(=O)[O-].C[NH+](CCO)CCO [N-methyldiethanolammonium acetate]",
    "viscosity": "64.12 ± 13 mPa·s"
  },
  {
    "compound": "CC(O)C(=O)[O-].[NH3+]CCO (stereo not given) [2-hydroxyethylammonium lactate]",
    "viscosity": "76.88 ± 15 mPa·s"
  },
  {
    "compound": "CC(=O)[O-].[NH3+]CCO [2-hydroxyethylammonium acetate]",
    "viscosity": "92.56 ± 19 mPa·s"
  },
  {
    "compound": "CC(O)C(=O)O.OCCNCCO [diethanolamine lactate]",
    "viscosity": "84.34 ± 17 mPa·s"
  },
  {
    "compound": "CC(=O)[O-].OCC[NH2+]CCO [2,2'-azanediylbis(ethanol) acetate]",
    "viscosity": "136.06 ± 28 mPa·s"
  }
]
